These entries and their values trace back to patent US10508120B2.

SYSTEM UNDER TEST: human TYK2 (JH2domain-pseudokinase) (Homo sapiens (Human), UniProt P29597)
Sequence (P29597 556-888): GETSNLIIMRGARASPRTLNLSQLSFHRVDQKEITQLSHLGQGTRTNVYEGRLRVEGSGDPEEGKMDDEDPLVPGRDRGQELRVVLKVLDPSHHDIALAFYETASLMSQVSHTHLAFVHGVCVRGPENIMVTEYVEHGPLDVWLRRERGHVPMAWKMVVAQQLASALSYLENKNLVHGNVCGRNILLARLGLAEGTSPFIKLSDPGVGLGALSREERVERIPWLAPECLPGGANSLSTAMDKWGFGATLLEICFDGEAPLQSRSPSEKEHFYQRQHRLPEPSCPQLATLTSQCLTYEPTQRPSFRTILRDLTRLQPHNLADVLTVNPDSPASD
PROTOCOL TEXT: TYK2 JH2 Domain Binding Assay (KINOMEscan)
Kd values for the compounds below.
VALUE KIND: Kd

>  <COMPOUND>
CNc1cc(Nc2cccnc2C(C)(C)O)nc2c(C(=O)N[C@H]3C[C@H]3F)cnn12 [I-307]

>  <TEST RESULT>
0.2 to 1 nM

$$$$
>  <COMPOUND>
CNc1cc(Nc2cccn(CCOC3CC3)c2=O)nc2c(C(=O)NC3CC[C@H]3O)cnn12 (stereo in doubt) [I-515]

>  <TEST RESULT>
0.2 to 1 nM

$$$$
>  <COMPOUND>
CNc1cc(Nc2cccn([C@@H]3CCCOC3)c2=O)nc2c(C(=O)N[C@H]3C[C@@H]3OC)cnn12 [I-1270]

>  <TEST RESULT>
1 to 10 nM

$$$$
>  <COMPOUND>
CNc1cc(Nc2cccn([C@@H]3CCC[C@H](C#N)C3)c2=O)nc2c(C(=O)N[C@@H]3C[C@@H]3F)cnn12 [I-1219]

>  <TEST RESULT>
< 0.2 nM

$$$$
>  <COMPOUND>
CNc1cc(Nc2cccn(-c3ccccn3)c2=O)nc2c(C(=O)NC3CC3)cnn12 [I-680]

>  <TEST RESULT>
< 0.2 nM

$$$$
>  <COMPOUND>
CNc1cc(-c2cn(CCN3CCOCC3)c3ncccc23)nc2c(C(=O)NCC(C)(C)CO)cnn12 [I-818]

>  <TEST RESULT>
0.2 to 1 nM

$$$$
>  <COMPOUND>
CNc1cc(Nc2cccn(C3CCN(CCF)CC3)c2=O)nc2c(C(=O)N[C@@H]3CC[C@@H]3O)cnn12 [I-897]

>  <TEST RESULT>
0.2 to 1 nM

$$$$
>  <COMPOUND>
CNc1cc(Nc2cccc3ocnc23)nc2c(C(=O)N[C@H]3CC[C@@H]3OC)cnn12 [I-1115]

>  <TEST RESULT>
1 to 10 nM

$$$$

----------
SYSTEM UNDER TEST: JAK2 kinase domain (JH1) (Homo sapiens (Human))
Sequence (O60674 849-1124): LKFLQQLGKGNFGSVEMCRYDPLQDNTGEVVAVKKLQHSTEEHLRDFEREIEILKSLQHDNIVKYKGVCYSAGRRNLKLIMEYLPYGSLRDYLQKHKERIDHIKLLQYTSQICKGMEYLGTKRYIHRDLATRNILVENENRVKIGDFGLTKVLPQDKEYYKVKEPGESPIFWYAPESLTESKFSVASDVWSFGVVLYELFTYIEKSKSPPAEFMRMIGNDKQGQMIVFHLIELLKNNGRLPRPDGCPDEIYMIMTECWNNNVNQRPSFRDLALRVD
PROTOCOL TEXT: JAK2 Radioactive Kinase Assay
Format: biochemical
CONDITION SET: compound at 10 μM; ATP 10 μM; read-out: JAK2 JH1% Inhibition @ 10 μM
inhibition at 10 µM values for the compounds below.

>  <COMPOUND>
CNc1cc(Nc2cc(F)cn(-c3cnn(C)c3)c2=O)nc2c(C(=O)NC3CC3)cnn12

>  <inhibition at 10 µM>
< 50%

$$$$
>  <COMPOUND>
CNc1cc(Nc2cccn(-c3cnn(CC4CCOCC4)c3)c2=O)nc2c(C(=O)N[C@H]3C[C@H]3F)cnn12

>  <inhibition at 10 µM>
< 50%

$$$$
>  <COMPOUND>
CNc1cc(Nc2cccc(N3CCCC3=O)n2)nc2c(C(=O)NC3CC3)cnn12

>  <inhibition at 10 µM>
< 50%

$$$$
>  <COMPOUND>
CNc1cc(Nc2cccn(-c3nc(C)co3)c2=O)nc2c(C(=O)N[C@@H]3CC[C@H]3O)cnn12 (stereo in doubt) [I-658]

>  <inhibition at 10 µM>
< 50%

$$$$
>  <COMPOUND>
CNc1cc(Nc2cccnc2OC(F)(F)F)nc2c(C(N)=O)cnn12

>  <inhibition at 10 µM>
< 50%

$$$$
>  <COMPOUND>
NC(=O)c1cnn2c(N)cc(Nc3cccnc3OC(F)(F)F)nc12

>  <inhibition at 10 µM>
> 90%

$$$$
>  <COMPOUND>
CNc1cc(Nc2cccn(-c3ccn(C4CC4)n3)c2=O)nc2c(C(N)=O)cnn12

>  <inhibition at 10 µM>
< 50%

$$$$
>  <COMPOUND>
CNc1cc(-c2nn(C(C)C)c3ncccc23)nc2c(C(=O)NC3CC3)cnn12

>  <inhibition at 10 µM>
< 50%

$$$$
>  <COMPOUND>
CNc1cc(Nc2cccnc2OC)nc2c(C(=O)NCC(C)(C)CO)cnn12

>  <inhibition at 10 µM>
< 50%

$$$$
>  <COMPOUND>
[2H]C([2H])([2H])Oc1ncccc1Nc1cc(NC)n2ncc(C(=O)N[C@@H]3CC[C@@H](O)C3)c2n1

>  <inhibition at 10 µM>
< 50%

$$$$
>  <COMPOUND>
CNc1cc(Nc2cccnc2OC)nc2c(C(=O)N[C@@H]3CC[C@@H](O)C3)cnn12

>  <inhibition at 10 µM>
< 50%

$$$$
>  <COMPOUND>
CNc1cc(Nc2cccnc2C(C)(C)O)nc2c(C(=O)N[C@H]3C[C@H]3F)cnn12

>  <inhibition at 10 µM>
< 50%

$$$$
>  <COMPOUND>
CNc1cc(Nc2cccn([C@@H]3CCCOC3)c2=O)nc2c(C(=O)N[C@@H]3C[C@@H]3F)cnn12

>  <inhibition at 10 µM>
< 50%

$$$$
>  <COMPOUND>
CNc1cc(Nc2cc(Cl)cn(-c3ncc(C)s3)c2=O)nc2c(C(=O)N[C@H]3C[C@H]3F)cnn12

>  <inhibition at 10 µM>
< 50%

$$$$
>  <COMPOUND>
CCCCn1cc(-c2cc(NC)n3ncc(C(=O)NC4CC4)c3n2)c2cccnc21

>  <inhibition at 10 µM>
< 50%

$$$$
>  <COMPOUND>
CNc1cc(Nc2cccc(N3CCOC3=O)n2)nc2c(C(N)=O)cnn12

>  <inhibition at 10 µM>
< 50%

$$$$
>  <COMPOUND>
[2H]C([2H])([2H])Oc1ncccc1Nc1cc(NC)n2ncc(C(=O)N[C@@H]3CC[C@H]3O)c2n1

>  <inhibition at 10 µM>
50 to 70%

$$$$
>  <COMPOUND>
CNc1cc(Nc2cc(Cl)cn(-c3cnn(C4CC4)c3C)c2=O)nc2c(C(N)=O)cnn12

>  <inhibition at 10 µM>
< 50%

$$$$
>  <COMPOUND>
CNc1cc(Nc2cccc(N3CCCC3=O)n2)nc2c(C(=O)N[C@@H]3CC[C@@H]3O)cnn12

>  <inhibition at 10 µM>
< 50%

$$$$
>  <COMPOUND>
CNc1cc(Nc2cccn(-c3ccc(F)cc3)c2=O)nc2c(C(=O)NCC(C)(C)CO)cnn12

>  <inhibition at 10 µM>
< 50%

$$$$
>  <COMPOUND>
CNc1cc(Nc2cccn(C3CCN(C)CC3)c2=O)nc2c(C(=O)N[C@@H]3CC[C@@H]3O)cnn12

>  <inhibition at 10 µM>
< 50%

$$$$
>  <COMPOUND>
CNc1cc(Nc2cccc([C@H]3CCCOC3)n2)nc2c(C(=O)N[C@H]3COC[C@H]3O)cnn12

>  <inhibition at 10 µM>
< 50%

$$$$
>  <COMPOUND>
CNc1cc(Nc2cccn(-c3ccccn3)c2=O)nc2c(C(=O)NC3CC3)cnn12

>  <inhibition at 10 µM>
< 50%

$$$$
>  <COMPOUND>
CNc1cc(Nc2cccn3cnnc23)nc2c(C(=O)N[C@H]3C[C@H]3F)cnn12

>  <inhibition at 10 µM>
< 50%

$$$$
>  <COMPOUND>
CNc1cc(Nc2cccn(CCOC3CC3)c2=O)nc2c(C(=O)N[C@@H]3CC[C@H]3O)cnn12

>  <inhibition at 10 µM>
< 50%

$$$$
>  <COMPOUND>
CNc1cc(Nc2cccn([C@H]3CC[C@](C)(O)CC3)c2=O)nc2c(C(=O)NC3CC3)cnn12

>  <inhibition at 10 µM>
< 50%

$$$$
>  <COMPOUND>
CNc1cc(Nc2cc(C)cn(-c3ccn(C)n3)c2=O)nc2c(C(N)=O)cnn12

>  <inhibition at 10 µM>
< 50%

$$$$
>  <COMPOUND>
[2H]C([2H])([2H])Oc1ncccc1Nc1cc(NC)n2ncc(C(=O)NC(C)(C)C#N)c2n1

>  <inhibition at 10 µM>
< 50%

$$$$
>  <COMPOUND>
CNc1cc(-c2cn(CCN3CCCCC3)c3ncccc23)nc2c(C(=O)N[C@@H]3CC[C@@H]3O)cnn12

>  <inhibition at 10 µM>
< 50%

$$$$
>  <COMPOUND>
CNc1cc(Nc2cccn([C@H]3CCN(C)C[C@H]3F)c2=O)nc2c(C(=O)NC3CC3)cnn12

>  <inhibition at 10 µM>
< 50%

$$$$
>  <COMPOUND>
CNc1cc(Nc2cccn(-c3ccn(C4CC4)n3)c2=O)nc2c(C(=O)N[C@@H]3C[C@@H]3F)cnn12 (stereo in doubt)

>  <inhibition at 10 µM>
< 50%

$$$$
>  <COMPOUND>
CNc1cc(Nc2cccc(C3CCCCO3)n2)nc2c(C(=O)NC3CC3)cnn12 (stereo in doubt) [I-464]

>  <inhibition at 10 µM>
< 50%

$$$$
>  <COMPOUND>
CNc1cc(Nc2cccn([C@@H]3CC[C@H]3O)c2=O)nc2c(C(=O)NC3CC3)cnn12

>  <inhibition at 10 µM>
< 50%

$$$$
